Provide the reported IC50 of each item.
test target: human TLR9 (Homo sapiens)
Sequence (Q9NR96 26-1032): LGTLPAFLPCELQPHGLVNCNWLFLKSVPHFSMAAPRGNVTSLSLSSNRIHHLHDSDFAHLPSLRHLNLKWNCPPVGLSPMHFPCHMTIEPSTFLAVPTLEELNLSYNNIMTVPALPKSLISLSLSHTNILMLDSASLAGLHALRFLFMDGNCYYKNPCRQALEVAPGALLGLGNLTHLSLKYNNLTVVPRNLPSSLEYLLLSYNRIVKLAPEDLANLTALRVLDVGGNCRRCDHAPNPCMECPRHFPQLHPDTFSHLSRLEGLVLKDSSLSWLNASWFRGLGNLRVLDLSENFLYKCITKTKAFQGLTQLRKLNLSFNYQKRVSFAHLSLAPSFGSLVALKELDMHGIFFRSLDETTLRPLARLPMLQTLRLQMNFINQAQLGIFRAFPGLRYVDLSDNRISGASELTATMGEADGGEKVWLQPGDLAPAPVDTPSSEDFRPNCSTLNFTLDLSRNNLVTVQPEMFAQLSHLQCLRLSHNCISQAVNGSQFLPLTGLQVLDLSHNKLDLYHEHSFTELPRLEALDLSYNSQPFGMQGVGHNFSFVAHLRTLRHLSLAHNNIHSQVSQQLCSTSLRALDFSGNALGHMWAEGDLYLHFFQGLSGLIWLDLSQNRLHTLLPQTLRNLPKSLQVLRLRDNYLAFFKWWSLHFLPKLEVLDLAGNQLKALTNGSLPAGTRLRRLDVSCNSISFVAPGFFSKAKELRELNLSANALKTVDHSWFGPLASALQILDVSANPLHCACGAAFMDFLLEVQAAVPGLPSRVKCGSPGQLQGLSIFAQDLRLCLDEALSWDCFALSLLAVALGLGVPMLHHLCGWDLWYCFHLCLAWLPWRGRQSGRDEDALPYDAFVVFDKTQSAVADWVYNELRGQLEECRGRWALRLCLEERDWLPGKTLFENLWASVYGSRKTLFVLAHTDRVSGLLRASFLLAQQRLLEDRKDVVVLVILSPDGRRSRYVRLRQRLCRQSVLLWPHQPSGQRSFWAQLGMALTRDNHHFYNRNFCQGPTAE
measurement notes: HEK293-Blue-hTLR-9 cells assay (SEAP reporter, ODN2006 stimulation)
run parameters: HEK293-Blue-hTLR9 cells, ODN2006 ligand, 20 hrs incubation, antagonist
A number alone suffices; assume nM.

Prompt: Provide IC50, tested on human TLR9 (Homo sapiens), for C[C@@H]1CN(c2ccc(C#N)c3ncsc23)C[C@H](C(=O)NC2CCN(C)CC2)O1 .
Completion: 17500

Prompt: Give measured IC50 for C[C@@H]1CN(c2ccc(C#N)c3ncsc23)C[C@H](CN2CC3(CCCNC3)C2)O1 (human TLR9 (Homo sapiens)).
Completion: 101

Prompt: Give the observed IC50 of C[C@@H]1CN(c2ccc(C#N)c3ncsc23)C[C@H](CN2CCC3(CCCNC3)C2)O1 (stereo partly drawn) for human TLR9 (Homo sapiens).
Completion: 87

Prompt: Report IC50 under test system human TLR9 (Homo sapiens) for C[C@@H]1CN(c2ccc(C#N)c3ncsc23)C[C@H](CN2CCC3(CCCNC3)CC2)O1 .
Completion: 77

Prompt: Tell me its IC50 on human TLR9 (Homo sapiens): C[C@@H]1CN(c2ccc(C#N)c3ncsc23)C[C@H](CN2[C@@H]3CC[C@H]2C[C@@H](N)C3)O1
Completion: 109

Prompt: State, for human TLR9 (Homo sapiens), measured IC50 of the compound listed here: C[C@@H]1CN(c2ccc(C#N)c3ncsc23)C[C@H](CN2CCC(N)CC2)O1
Completion: 300

Prompt: Give IC50; test system human TLR9 (Homo sapiens); compound C[C@@H]1CN(c2ccc(C#N)c3ncsc23)C[C@H](CN2CCC3(CCNC3)CC2)O1
Completion: 98

Prompt: Quote IC50 with test system human TLR9 (Homo sapiens) for C[C@@H]1CN(c2ccc(C#N)c3ncsc23)C[C@H](CN2[C@@H]3CC[C@H]2C[C@H](N)C3)O1
Completion: 65

Prompt: Under human TLR9 (Homo sapiens), report IC50 for C[C@@H]1CN(c2ccc(C#N)c3ncsc23)C[C@H](CN2CCC3(CCCN(C)C3)CC2)O1
Completion: 77

Prompt: Please look at C[C@@H]1CN(c2ccc(C#N)c3ncsc23)C[C@H](C(=O)NCC2CN(C)CCO2)O1 (stereo partly drawn) and tell me its recorded IC50 on human TLR9 (Homo sapiens).
Completion: 36800

Prompt: Look up human TLR9 (Homo sapiens) data: IC50 of C[C@@H]1CN(c2ccc(C#N)c3ncsc23)C[C@H](CN2CCC3(CCNCC3)CC2)O1 , then report it.
Completion: 145

Prompt: Return reported IC50 for target or system human TLR9 (Homo sapiens), item C[C@@H]1CN(c2ccc(C#N)c3ncsc23)C[C@H](CN2CCC(N3CCCCC3)CC2)O1 .
Completion: 118

Sourced from patent US11639352B2
